conditions: in isopentanol, 313.15 K
READOUT_LABEL: solubility (mole fraction)

STRUCTURE_STRING | DATA_VALUE
CSCC[C@H](NC(=O)OCC1c2ccccc2-c2ccccc21)C(=O)O | 0.0154

----------
details: in n-pentanol, 313.15 K

STRUCTURE_STRING | solubility (mole fraction)
CSCC[C@H](NC(=O)OCC1c2ccccc2-c2ccccc21)C(=O)O | 0.0399

----------
conditions: in n-propanol, 308.15 K

STRUCTURE_STRING | solubility (mole fraction)
CSCC[C@H](NC(=O)OCC1c2ccccc2-c2ccccc21)C(=O)O | 0.0324

----------
settings: in n-propanol, 298.15 K
READOUT_LABEL: solubility (mole fraction)

STRUCTURE_STRING | READOUT_LABEL | DATA_VALUE
CSCC[C@H](NC(=O)OCC1c2ccccc2-c2ccccc21)C(=O)O | solubility (mole fraction) | 0.0231

----------
conditions: in n-propyl acetate, 318.15 K
READOUT_LABEL: solubility (mole fraction)

STRUCTURE_STRING | DATA_VALUE
CSCC[C@H](NC(=O)OCC1c2ccccc2-c2ccccc21)C(=O)O | 0.043

----------
settings: in isobutanol, 288.15 K
READOUT_LABEL: solubility (mole fraction)

STRUCTURE_STRING | DATA_VALUE
CSCC[C@H](NC(=O)OCC1c2ccccc2-c2ccccc21)C(=O)O | 0.00573

----------
settings: in 2-butanone, 318.15 K

STRUCTURE_STRING | solubility (mole fraction)
CSCC[C@H](NC(=O)OCC1c2ccccc2-c2ccccc21)C(=O)O | 0.0695

----------
conditions: in isopropanol, 283.15 K

STRUCTURE_STRING | solubility (mole fraction)
CSCC[C@H](NC(=O)OCC1c2ccccc2-c2ccccc21)C(=O)O | 0.00635

----------
settings: in acetone, 308.15 K

STRUCTURE_STRING | solubility (mole fraction)
CSCC[C@H](NC(=O)OCC1c2ccccc2-c2ccccc21)C(=O)O | 0.0806

----------
conditions: in acetone, 318.15 K

STRUCTURE_STRING | solubility (mole fraction)
CSCC[C@H](NC(=O)OCC1c2ccccc2-c2ccccc21)C(=O)O | 0.0961

----------
details: in n-pentanol, 308.15 K

STRUCTURE_STRING | solubility (mole fraction)
CSCC[C@H](NC(=O)OCC1c2ccccc2-c2ccccc21)C(=O)O | 0.033

----------
conditions: in acetonitrile, 323.15 K

STRUCTURE_STRING | solubility (mole fraction)
CSCC[C@H](NC(=O)OCC1c2ccccc2-c2ccccc21)C(=O)O | 0.0155

----------
details: in n-propanol, 293.15 K

STRUCTURE_STRING | solubility (mole fraction)
CSCC[C@H](NC(=O)OCC1c2ccccc2-c2ccccc21)C(=O)O | 0.0172

----------
settings: in n-butyl acetate, 308.15 K

STRUCTURE_STRING | solubility (mole fraction)
CSCC[C@H](NC(=O)OCC1c2ccccc2-c2ccccc21)C(=O)O | 0.028

----------
settings: in n-propanol, 303.15 K

STRUCTURE_STRING | solubility (mole fraction)
CSCC[C@H](NC(=O)OCC1c2ccccc2-c2ccccc21)C(=O)O | 0.0271

----------
conditions: in sec-butanol, 308.15 K

STRUCTURE_STRING | solubility (mole fraction)
CSCC[C@H](NC(=O)OCC1c2ccccc2-c2ccccc21)C(=O)O | 0.0438

----------
conditions: in 2-butanone, 323.15 K

STRUCTURE_STRING | solubility (mole fraction)
CSCC[C@H](NC(=O)OCC1c2ccccc2-c2ccccc21)C(=O)O | 0.0818

----------
details: in n-propyl acetate, 283.15 K
READOUT_LABEL: solubility (mole fraction)

STRUCTURE_STRING | DATA_VALUE
CSCC[C@H](NC(=O)OCC1c2ccccc2-c2ccccc21)C(=O)O | 0.0155

----------
settings: in n-pentanol, 283.15 K

STRUCTURE_STRING | solubility (mole fraction)
CSCC[C@H](NC(=O)OCC1c2ccccc2-c2ccccc21)C(=O)O | 0.00977

----------
conditions: in n-pentanol, 298.15 K

STRUCTURE_STRING | solubility (mole fraction)
CSCC[C@H](NC(=O)OCC1c2ccccc2-c2ccccc21)C(=O)O | 0.019

----------
conditions: in 2-butanone, 298.15 K

STRUCTURE_STRING | solubility (mole fraction)
CSCC[C@H](NC(=O)OCC1c2ccccc2-c2ccccc21)C(=O)O | 0.0406

----------
conditions: in n-propyl acetate, 288.15 K
READOUT_LABEL: solubility (mole fraction)

STRUCTURE_STRING | DATA_VALUE
CSCC[C@H](NC(=O)OCC1c2ccccc2-c2ccccc21)C(=O)O | 0.0181

----------
conditions: in n-propanol, 318.15 K

STRUCTURE_STRING | solubility (mole fraction)
CSCC[C@H](NC(=O)OCC1c2ccccc2-c2ccccc21)C(=O)O | 0.0496

----------
conditions: in acetone, 293.15 K
READOUT_LABEL: solubility (mole fraction)

STRUCTURE_STRING | DATA_VALUE
CSCC[C@H](NC(=O)OCC1c2ccccc2-c2ccccc21)C(=O)O | 0.0553

----------
conditions: in acetonitrile, 318.15 K
READOUT_LABEL: solubility (mole fraction)

STRUCTURE_STRING | DATA_VALUE
CSCC[C@H](NC(=O)OCC1c2ccccc2-c2ccccc21)C(=O)O | 0.0127

----------
settings: in sec-butanol, 288.15 K

STRUCTURE_STRING | solubility (mole fraction)
CSCC[C@H](NC(=O)OCC1c2ccccc2-c2ccccc21)C(=O)O | 0.0109

----------
settings: in sec-butanol, 298.15 K

STRUCTURE_STRING | solubility (mole fraction)
CSCC[C@H](NC(=O)OCC1c2ccccc2-c2ccccc21)C(=O)O | 0.0223

----------
details: in n-propyl acetate, 298.15 K

STRUCTURE_STRING | solubility (mole fraction)
CSCC[C@H](NC(=O)OCC1c2ccccc2-c2ccccc21)C(=O)O | 0.0252

----------
conditions: in acetonitrile, 288.15 K

STRUCTURE_STRING | solubility (mole fraction)
CSCC[C@H](NC(=O)OCC1c2ccccc2-c2ccccc21)C(=O)O | 0.00465

----------
conditions: in sec-butanol, 293.15 K
READOUT_LABEL: solubility (mole fraction)

STRUCTURE_STRING | DATA_VALUE
CSCC[C@H](NC(=O)OCC1c2ccccc2-c2ccccc21)C(=O)O | 0.0152

----------
settings: in sec-butanol, 313.15 K

STRUCTURE_STRING | solubility (mole fraction)
CSCC[C@H](NC(=O)OCC1c2ccccc2-c2ccccc21)C(=O)O | 0.0506

----------
conditions: in isopropanol, 303.15 K
READOUT_LABEL: solubility (mole fraction)

STRUCTURE_STRING | DATA_VALUE
CSCC[C@H](NC(=O)OCC1c2ccccc2-c2ccccc21)C(=O)O | 0.0142

----------
settings: in n-pentanol, 318.15 K

STRUCTURE_STRING | solubility (mole fraction)
CSCC[C@H](NC(=O)OCC1c2ccccc2-c2ccccc21)C(=O)O | 0.0514

----------
conditions: in n-pentanol, 323.15 K
READOUT_LABEL: solubility (mole fraction)

STRUCTURE_STRING | DATA_VALUE
CSCC[C@H](NC(=O)OCC1c2ccccc2-c2ccccc21)C(=O)O | 0.0667

----------
settings: in n-propanol, 283.15 K

STRUCTURE_STRING | solubility (mole fraction)
CSCC[C@H](NC(=O)OCC1c2ccccc2-c2ccccc21)C(=O)O | 0.0101

----------
details: in 2-butanone, 303.15 K
READOUT_LABEL: solubility (mole fraction)

STRUCTURE_STRING | DATA_VALUE
CSCC[C@H](NC(=O)OCC1c2ccccc2-c2ccccc21)C(=O)O | 0.0454

----------
conditions: in 2-butanone, 293.15 K

STRUCTURE_STRING | solubility (mole fraction)
CSCC[C@H](NC(=O)OCC1c2ccccc2-c2ccccc21)C(=O)O | 0.0336

----------
conditions: in 2-butanone, 308.15 K
READOUT_LABEL: solubility (mole fraction)

STRUCTURE_STRING | DATA_VALUE
CSCC[C@H](NC(=O)OCC1c2ccccc2-c2ccccc21)C(=O)O | 0.0513

----------
settings: in isopropanol, 298.15 K

STRUCTURE_STRING | solubility (mole fraction)
CSCC[C@H](NC(=O)OCC1c2ccccc2-c2ccccc21)C(=O)O | 0.00932

----------
settings: in n-butanol, 323.15 K
READOUT_LABEL: solubility (mole fraction)

STRUCTURE_STRING | DATA_VALUE
CSCC[C@H](NC(=O)OCC1c2ccccc2-c2ccccc21)C(=O)O | 0.0542

----------
conditions: in n-butanol, 318.15 K
READOUT_LABEL: solubility (mole fraction)

STRUCTURE_STRING | DATA_VALUE
CSCC[C@H](NC(=O)OCC1c2ccccc2-c2ccccc21)C(=O)O | 0.0478
